ASSAYED_TARGET: human FXR alpha ligand binding domain (Homo sapiens, UniProt Q96RI1)
Sequence (Q96RI1 187-472 isoform Q96RI1-2): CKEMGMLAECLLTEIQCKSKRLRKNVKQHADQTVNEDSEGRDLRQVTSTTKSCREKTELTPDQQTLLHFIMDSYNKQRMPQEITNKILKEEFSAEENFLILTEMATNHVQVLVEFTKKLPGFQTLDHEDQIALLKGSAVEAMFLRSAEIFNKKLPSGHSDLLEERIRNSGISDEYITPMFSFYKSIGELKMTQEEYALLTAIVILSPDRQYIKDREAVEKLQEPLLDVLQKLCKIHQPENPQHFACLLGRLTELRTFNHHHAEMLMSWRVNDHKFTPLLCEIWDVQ
PROTOCOL_SUMMARY: FRET activity assay (ligand mediated cofactor peptide interaction, LANCE)
TEST_PARAMETERS: GST-FXR-LBD / biotinylated SRC-1 peptide (676-700), read-out: F EC50
Dear colleague, classification is by EC50, with ranges listed here: b0 (below 50 nM), b1 (50 nM to below 200 nM), b2 (200 nM or more)

Some solved cases for reference:
{"columns": ["MOLECULE", "LABEL_CLASS"],
 "data": [
  ["CC1(OCc2c(-c3c(Cl)cccc3Cl)noc2C2CC2)C[C@H]2CC[C@@H](C1)[C@]2(O)c1nc2c(F)cc(C(=O)O)cc2s1 (single isomer, unassigned) [Example 11-39]", "b2"],
  ["O=C(O)c1cc2sc([C@]3(O)CC[C@@H](OCc4c(-c5c(Cl)cccc5Cl)noc4C4CC4)CC3)nc2cc1F [Example 11-20]", "b1"],
  ["CC(C)c1onc(-c2c(Cl)cccc2Cl)c1CO[C@@H]1C[C@H]2CC[C@@H](C1)[C@]2(O)c1nc2c(F)cc(C(=O)O)cc2s1 [Example 11-51]", "b0"],
  ["COCC1(OCc2c(-c3c(Cl)cccc3Cl)noc2C2CC2)C[C@H]2CC[C@@H](C1)[C@]2(O)c1nc2c(F)cc(C(=O)O)cc2s1 (single isomer, unassigned) [Example 11-41]", "b1"],
  ["O=c1nc(-c2cc(F)c3nc([C@]4(O)[C@@H]5CC[C@H]4C[C@H](OCc4c(-c6c(Cl)cccc6Cl)noc4C4CC4)C5)sc3c2)[nH]o1 [Example 36]", "b0"],
  ["Cc1cccc(C)c1-c1noc(C2CC2)c1CO[C@H]1CC[C@](O)(c2nc3ccc(C(=O)O)cc3s2)CC1 [Example 11-12]", "b2"],
  ["O=C(O)c1ccc2nc([C@]3(O)CC[C@@H](OCc4c(-c5c(Cl)cccc5Cl)noc4C4CC4)CC3)sc2c1 [Example 11-30]", "b1"],
  ["O=C(O)c1ccc2nc([C@@]3(O)[C@@H]4CC5C[C@H]3C[C@](OCc3c(-c6c(Cl)cccc6Cl)noc3C3CC3)(C5)C4)sc2c1 [Example 11-35]", "b0"]
]}

Request: # classify by EC50 band: O=C(O)c1ccc2nc([C@]3(O)[C@@H]4CC5C[C@H]3C[C@](OCc3c(-c6c(Cl)cccc6Cl)noc3C3CC3)(C5)C4)sc2c1 [Example 11-36]
Response: b2

Request: Which bin should I file O=C(O)c1cccc([C@]2(O)[C@@H]3CC[C@H]2C[C@H](OCc2c(-c4c(Cl)cccc4Cl)noc2C2CC2)C3)c1 [Example 11-25] under?
Response: b1

Request: Band of O=C(O)c1cc(F)c2nc(C3(O)C[C@H]4CC[C@@H](C3)C4OCc3c(-c4c(Cl)cccc4Cl)noc3C3CC3)sc2c1 (single isomer, unassigned) [Example 11-54] ?
Response: b2

Request: GET /class?item= O=C(O)c1ccc2nc([C@]3(O)CC[C@@H](OCc4c(-c5ccccc5OC(F)F)noc4C4CC4)CC3)sc2c1 [Example 11-10]
Response: b2

Request: Which class is correct for the following molecule? O=C(O)Cc1nc([C@]2(O)[C@@H]3CC[C@H]2C[C@H](OCc2c(-c4c(Cl)cccc4Cl)noc2C2CC2)C3)oc1C(F)(F)F [Example 45]
Response: b0

Origin of values: patent US9751874B2
